System: SK-MEL-28 melanoma
assay.name: NCI tumour cell line growth inhibition, 48 h
# Lookup of reported TGI keyed by entry

- CC(=O)NC(C=O)C(O[C@H](C)C(=O)NC(C)C(=O)NC(CCC(N)=O)C(=O)OCc1ccccc1)C(O)C(O)COC(=O)CCNc1c2ccccc2nc2cccc([N+](=O)[O-])c12 (stereo not given in full): 11.6 µM
- COc1cc2ccnc3c(=C(SC)SC)c(=O)c(c1OC)c23: 26 µM
- CC(C)(NC(=O)OCc1ccccc1)C(=O)OC(=O)C(C)(C)NC(=O)OCc1ccccc1: > 100 µM
- NC(Cc1ccc2nc3c4ccccc4c(=O)cc-3oc2c1)C(=O)O (stereo not given): > 100 µM
- CC(=O)/C=C/c1ccc(OCc2ccc(Cl)cc2)cc1: > 1000 µM
- CSc1nc(N)c2c(-c3ccccc3)c3c(nc2n1)CCCC3: > 100 µM
- OCCN(CCO)c1cccc(N(CCO)CCO)n1: > 100 µM
- Cc1cc(O)c(C2=NN(c3ccc(S(N)(=O)=O)cc3)C(/C=C/c3ccccc3)C2)cc1Cl (stereo not given): 23.8 µM
- Cc1ccc(-n2nnnc2-c2cnc(N3CCOCC3)nc2-c2cccc(C(F)(F)F)c2)cc1: > 50 µM

The record that follows has no TGI shown yet.
What reported TGI corresponds to `C=C(C(=C)P(=S)(C(C)C)C(C)C)P(=S)(C(C)C)C(C)C` on SK-MEL-28 melanoma?
> 100 µM
